Value source: paper PMC5712561

# Tested on: H1975 cells
# Protocol Description: Growth inhibition, sulforhodamine B assay, H1975
# Type: cell-based
# Condition Details: H1975, result in words
Observable: anticancer activity / effect on cell proliferation

| Molecular String | Result |
| --- | --- |
| CCCc1nn(C)c2c(=O)[nH]c(-c3cc(S(=O)(=O)N4CCN(C)CC4)ccc3OCC)nc12 | negative |
| O=C(c1ccc(F)cc1)C1CCN(CCn2c(=O)[nH]c3ccccc3c2=O)CC1 | negative |

====

Please provide measured pIC50 for the entries that follow.
# System Under Test: EGFR wild type (Homo sapiens, UniProt P00533)
# Sequence (P00533 25-1210): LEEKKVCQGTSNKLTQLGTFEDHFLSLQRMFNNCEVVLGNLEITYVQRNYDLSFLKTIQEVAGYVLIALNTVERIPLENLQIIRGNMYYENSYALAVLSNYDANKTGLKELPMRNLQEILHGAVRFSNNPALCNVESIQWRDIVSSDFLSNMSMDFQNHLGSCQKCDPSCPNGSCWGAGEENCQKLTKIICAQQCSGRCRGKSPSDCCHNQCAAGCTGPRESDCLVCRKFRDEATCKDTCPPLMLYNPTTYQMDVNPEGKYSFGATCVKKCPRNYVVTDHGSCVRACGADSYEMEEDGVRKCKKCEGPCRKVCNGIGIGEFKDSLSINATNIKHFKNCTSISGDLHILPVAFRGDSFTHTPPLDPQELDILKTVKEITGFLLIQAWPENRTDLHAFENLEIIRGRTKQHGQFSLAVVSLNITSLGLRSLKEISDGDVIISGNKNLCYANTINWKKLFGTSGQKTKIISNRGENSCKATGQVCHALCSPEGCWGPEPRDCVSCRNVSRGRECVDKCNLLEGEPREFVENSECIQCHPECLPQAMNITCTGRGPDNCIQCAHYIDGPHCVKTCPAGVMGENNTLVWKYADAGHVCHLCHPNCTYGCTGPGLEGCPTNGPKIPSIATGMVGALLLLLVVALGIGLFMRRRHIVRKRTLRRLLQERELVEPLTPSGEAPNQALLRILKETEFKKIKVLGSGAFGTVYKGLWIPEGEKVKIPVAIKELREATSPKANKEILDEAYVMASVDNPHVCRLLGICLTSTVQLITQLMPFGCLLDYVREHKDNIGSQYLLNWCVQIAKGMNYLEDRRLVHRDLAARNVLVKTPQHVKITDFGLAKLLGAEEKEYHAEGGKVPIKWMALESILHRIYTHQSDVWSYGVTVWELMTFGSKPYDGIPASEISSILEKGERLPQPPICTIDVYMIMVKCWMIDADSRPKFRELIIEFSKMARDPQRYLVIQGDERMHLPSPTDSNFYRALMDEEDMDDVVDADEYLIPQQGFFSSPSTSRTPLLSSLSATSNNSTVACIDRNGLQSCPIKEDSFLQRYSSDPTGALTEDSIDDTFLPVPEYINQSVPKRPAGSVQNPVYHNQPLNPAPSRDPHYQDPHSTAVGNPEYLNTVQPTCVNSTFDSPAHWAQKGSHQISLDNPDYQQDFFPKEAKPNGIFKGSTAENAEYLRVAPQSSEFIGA
# Protocol Description: Cell-free kinase inhibition assay (ADP-Glo), EGFR wild type
# Condition Details: recombinant EGFR wild type, poly-EY substrate
# Method: Inhibition of tyrosine kinase signaling by the drug candidates identified was examined in a cell-free system by assessing the phosphorylation of a poly-EY (4:1 Glu, Tyr) peptide substrate (for EGFR) with recombinant kinases EGFR^wt, EGFR^L858R, or EGFR^L858R+T790M as described previously ([34]). Inhibition of the recombinant kinases by the drug candidates was evaluated by using the ADP-Glo Kinase assay kit according to the manufacturer’s instruction (Promega, Madison, WI, USA). […]
Please keep in mind that pIC50 is minus log10 of the molar concentration; only the number is needed.

Field pIC50 (entry Cc1ccc([C@@H]2O[C@H](CO)[C@@H](O)[C@H](O)[C@H]2O)cc1Cc1ccc(-c2ccc(F)cc2)s1 [Canagliflozin] ) reads 6.10

Field pIC50 (entry OCCN1CCN(CC/C=C2/c3ccccc3Sc3ccc(C(F)(F)F)cc32)CC1 [Cis-flupenthixol] ) reads 6.73

Field pIC50 (entry CCc1cc2c(cc1CC)CC(NC[C@H](O)c1ccc(O)c3[nH]c(=O)ccc13)C2 [Indacaterol] ) reads 6.10

====

# System Under Test: EGFR L858R/T790M (Homo sapiens, UniProt P00533, L858R/T790M)
# Sequence (P00533 25-1210 T790M/L858R): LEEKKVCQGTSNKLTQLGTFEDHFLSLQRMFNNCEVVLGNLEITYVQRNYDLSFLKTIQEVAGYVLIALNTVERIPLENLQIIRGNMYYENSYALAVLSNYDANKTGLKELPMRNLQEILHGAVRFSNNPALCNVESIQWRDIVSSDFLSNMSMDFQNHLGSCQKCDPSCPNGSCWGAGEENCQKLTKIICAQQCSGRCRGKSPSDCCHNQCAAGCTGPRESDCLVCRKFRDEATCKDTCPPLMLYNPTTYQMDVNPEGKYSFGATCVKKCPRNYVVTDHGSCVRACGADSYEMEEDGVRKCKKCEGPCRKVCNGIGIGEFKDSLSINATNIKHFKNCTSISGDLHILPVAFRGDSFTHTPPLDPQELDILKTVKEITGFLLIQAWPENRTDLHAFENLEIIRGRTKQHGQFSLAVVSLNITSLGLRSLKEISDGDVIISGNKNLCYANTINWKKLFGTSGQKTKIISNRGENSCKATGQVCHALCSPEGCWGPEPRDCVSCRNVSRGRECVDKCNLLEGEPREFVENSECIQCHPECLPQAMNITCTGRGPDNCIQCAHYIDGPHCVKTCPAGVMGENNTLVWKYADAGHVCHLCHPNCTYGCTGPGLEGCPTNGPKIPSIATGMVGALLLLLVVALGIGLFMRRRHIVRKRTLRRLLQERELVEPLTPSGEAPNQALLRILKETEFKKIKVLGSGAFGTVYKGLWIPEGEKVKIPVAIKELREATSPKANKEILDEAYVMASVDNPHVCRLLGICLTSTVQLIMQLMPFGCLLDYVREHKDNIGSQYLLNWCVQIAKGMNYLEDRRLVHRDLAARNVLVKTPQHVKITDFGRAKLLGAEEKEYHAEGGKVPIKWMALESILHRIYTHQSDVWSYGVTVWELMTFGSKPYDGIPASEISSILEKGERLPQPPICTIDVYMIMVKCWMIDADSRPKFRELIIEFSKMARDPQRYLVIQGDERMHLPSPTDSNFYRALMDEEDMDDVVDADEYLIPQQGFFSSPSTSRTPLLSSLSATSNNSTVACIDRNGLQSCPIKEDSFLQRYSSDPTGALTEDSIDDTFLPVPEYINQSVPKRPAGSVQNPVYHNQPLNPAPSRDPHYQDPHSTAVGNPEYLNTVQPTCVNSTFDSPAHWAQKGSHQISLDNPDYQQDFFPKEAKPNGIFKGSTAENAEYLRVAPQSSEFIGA
# Protocol Description: Cell-free kinase inhibition assay (ADP-Glo), EGFR L858R/T790M
# Condition Details: recombinant EGFR L858R/T790M, poly-EY substrate
Observable: pIC50
Please keep in mind that pIC50 is minus log10 of the molar concentration; only the number is needed.

Field pIC50 (entry OCCN1CCN(CC/C=C2/c3ccccc3Sc3ccc(C(F)(F)F)cc32)CC1 [Cis-flupenthixol] ) reads 7.03

Field pIC50 (entry Cc1ccc([C@@H]2O[C@H](CO)[C@@H](O)[C@H](O)[C@H]2O)cc1Cc1ccc(-c2ccc(F)cc2)s1 ) reads 6.58

Field pIC50 (entry CCc1cc2c(cc1CC)CC(NC[C@H](O)c1ccc(O)c3[nH]c(=O)ccc13)C2 ) reads 6.99

====

Please provide measured IC50 for the entries that follow.
# System Under Test: EGFR L858R (Homo sapiens, UniProt P00533, L858R)
# Sequence (P00533 25-1210 L858R): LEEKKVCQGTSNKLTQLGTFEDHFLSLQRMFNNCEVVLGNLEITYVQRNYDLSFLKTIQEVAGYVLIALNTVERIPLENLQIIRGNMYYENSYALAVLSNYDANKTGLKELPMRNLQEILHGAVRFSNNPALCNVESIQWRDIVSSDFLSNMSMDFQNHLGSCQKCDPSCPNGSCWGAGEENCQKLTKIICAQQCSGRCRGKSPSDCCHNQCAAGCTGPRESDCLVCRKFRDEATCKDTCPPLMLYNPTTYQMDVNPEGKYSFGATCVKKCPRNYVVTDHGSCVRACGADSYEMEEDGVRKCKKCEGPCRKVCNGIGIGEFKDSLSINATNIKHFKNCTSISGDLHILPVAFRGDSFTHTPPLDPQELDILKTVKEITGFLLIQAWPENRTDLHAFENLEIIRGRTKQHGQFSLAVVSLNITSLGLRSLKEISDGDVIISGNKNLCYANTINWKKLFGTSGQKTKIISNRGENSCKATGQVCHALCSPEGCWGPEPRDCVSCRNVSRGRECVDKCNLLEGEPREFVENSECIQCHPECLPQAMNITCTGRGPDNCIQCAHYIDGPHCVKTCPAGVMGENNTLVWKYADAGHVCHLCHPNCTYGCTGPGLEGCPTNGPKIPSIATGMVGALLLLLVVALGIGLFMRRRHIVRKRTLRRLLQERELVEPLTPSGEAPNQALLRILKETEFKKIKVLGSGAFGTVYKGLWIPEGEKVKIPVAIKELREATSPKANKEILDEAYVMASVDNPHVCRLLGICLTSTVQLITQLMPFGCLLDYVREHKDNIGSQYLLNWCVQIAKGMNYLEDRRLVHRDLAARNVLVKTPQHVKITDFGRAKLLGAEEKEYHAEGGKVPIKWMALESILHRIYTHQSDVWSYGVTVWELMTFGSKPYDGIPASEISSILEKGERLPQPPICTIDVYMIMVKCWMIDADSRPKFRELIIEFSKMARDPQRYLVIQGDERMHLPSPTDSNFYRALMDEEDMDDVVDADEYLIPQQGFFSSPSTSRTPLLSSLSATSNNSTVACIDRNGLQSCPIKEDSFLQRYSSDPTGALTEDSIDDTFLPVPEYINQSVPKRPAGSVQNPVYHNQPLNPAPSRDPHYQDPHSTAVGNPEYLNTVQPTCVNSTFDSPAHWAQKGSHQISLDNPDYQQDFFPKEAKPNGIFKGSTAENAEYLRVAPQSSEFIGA
# Protocol Description: Cell-free kinase inhibition assay (ADP-Glo), EGFR L858R
# Condition Details: recombinant EGFR L858R, poly-EY substrate
Write the value in nM as a bare number.

Field IC50 (entry OCCN1CCN(CC/C=C2/c3ccccc3Sc3ccc(C(F)(F)F)cc32)CC1 [Cis-flupenthixol] ) reads 83

Field IC50 (entry Cc1ccc([C@@H]2O[C@H](CO)[C@@H](O)[C@H](O)[C@H]2O)cc1Cc1ccc(-c2ccc(F)cc2)s1 ) reads 368

Field IC50 (entry CCc1cc2c(cc1CC)CC(NC[C@H](O)c1ccc(O)c3[nH]c(=O)ccc13)C2 ) reads 232
